test_protocol: chemical genetic growth profiling, strain panel (AID 1159580);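 also: tested at 20 µM; growth read once vehicle control cultures reached saturation at 30 °C; 1 = growth at the plate median or of vehicle wells; lower values mean less growth of the strain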
particulars: S. cerevisiae deletion strains, growth OD, locus YIR030C, strain dcg1
The campaign covered roughly 5,500 compounds. About 2,000 (36%) were called active. Inconclusive results (about 18%) are left out. Rule as the data show it: active = normalized growth mostly below about 0.91 (no sharp cut-off); inconclusive = no clear call, values can overlap the other calls; inactive = mostly above about 0.92. The list shows a part of the results.
Returns: one label drawn from true for active, false for inactive

Asked: Test call for this compound, please: c1ccc(CC2=NCCN2)cc1
Given back: true

* * *

test_protocol: chemical genetic growth profiling, strain panel (AID 1159580);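 also: tested at 20 µM; growth read once vehicle control cultures reached saturation at 30 °C; 1 = growth at the plate median or of vehicle wells; lower values mean less growth of the strain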
particulars: S. cerevisiae deletion strains, growth OD, locus YLR221C, strain rsa3, hits give low values
The campaign covered roughly 5,500 compounds. About 2,000 (36%) were called active. Roughly 18% stayed inconclusive and do not appear here. The list shows a part of the results.
Could you please report measured normalized growth for the items listed next?
Answers are plain numbers.

Here's what some known entries look like.
COC(=O)C1[C@H]2C[C@H]3c4[nH]c5ccccc5c4CCN3C[C@@H]2CC[C@@H]1O (some centres not stated) = 1.01
CC(=O)CC(=O)CCC(=O)O = 1.01
CC[C@@H](CO)NCCN[C@@H](CC)CO = 1.05
CC(=O)O[C@]1(C(C)=O)CCC2C3C=C(C)C4=CC(=O)CCC4(C)C3CCC21C (some centres not stated) = 0.957
S=C=NCc1ccccc1 = 0.0763
COC(=O)[C@@H]1C(O)CC[C@H]2CN3CCc4c([nH]c5ccccc45)[C@@H]3C[C@@H]21 (some centres not stated) = 1
NC(=O)N1c2ccccc2CC(=O)c2ccccc21 = 0.962
COc1ccc([C@@H]2CC(=O)c3c(O)cc(O)cc3O2)cc1O = 0.959
OC(CCN1CCCCC1)(c1ccccc1)c1ccccc1 = 0.966
CNC1(C)C2CCC(C2)C1(C)C (configuration not stated) = 0.976

Answer for every listed entry: what is its normalized growth? The entries follow.
1. CCC(C(=O)O)c1ccccc1 (configuration not stated)
2. CC(=O)[C@H]1CCC2C3C[C@H](C)C4=CC(=O)CC[C@]4(C)C3[C@@H](O)C[C@@]21C (some centres not stated)
3. NC(N)=Nc1nc(CSCCC(N)=NS(N)(=O)=O)cs1
4. CCc1nc(N)nc(N)c1-c1ccc(Cl)cc1
5. C/C=C(/C(=C/C)c1ccc(O)cc1)c1ccc(O)cc1
6. CC1(C)S[C@@H]2[C@H](NC(=O)[C@H](NC(=O)N3CCNC3=O)c3ccccc3)C(=O)N2C1C(=O)O (some centres not stated)
7. O=C(O)COc1cc(Cl)c(Cl)cc1Cl
8. CC(=O)O[C@]1(C(C)=O)CCC2C3C[C@H](C)C4=CC(=O)CC[C@]4(C)C3CC[C@@]21C (some centres not stated)

Given back:
[0.992, 0.945, 0.99, 1, 0.982, 0.964, 1, 0.9]

Every entry's value here was drawn from PubChem BioAssay AID1159580.
